The values you see were collected from ChEMBL document CHEMBL1201862.

Tested on: SF-295
Assay: NCI tumour cell line growth inhibition, 48 h
Active and inactive are the calls of the source. Cut-off read from the data, not from the text of the source: active = GI50 up to about 1.1 µM and inactive = higher.
Listed next: entries and their corresponding GI50.
readout_name: GI50

compound=CC(C)=CCNc1nc(Cl)nc2[nH]cnc12 readout_name=GI50 result="42.6 µM (inactive)"
compound="CNC(=O)C(NC(=O)[C@H](CC(C)C)NC(=O)[C@@H](S)CCN1C(=O)N(C)C(C)(C)C1=O)C(C)(C)C (some centres undefined)" readout_name=GI50 result="> 100 µM (inactive)"
compound="O=S(=O)(c1ccc(/N=C2\\NC(c3ccc(O)cc3)(c3ccccc3O)c3ccccc32)cc1)c1ccc(/N=C2/NC(c3ccc(O)cc3)(c3ccccc3O)c3ccccc32)cc1 (centres undefined)" readout_name=GI50 result="5.28 µM (inactive)"
compound="O=[N+]([O-])CC(SCc1ccccc1)c1ccc2c(c1)OCO2 (centres undefined)" readout_name=GI50 result="7.76 µM (inactive)"

----------
Listing of entries alongside the reported GI50.
Tested on: OVCAR-4
Experiment: NCI tumour cell line growth inhibition, 48 h
Calls of active or inactive are those of the source. No stated cut-off is given here; in the data, active = GI50 up to about 1.1 µM and inactive = higher.
readout_name: GI50

compound=COc1ccc(-n2c3c(c4c(CN(C)C)c(O)ccc42)C(=O)c2ccccc2C3=O)cc1 result="2.37 µM (inactive)"
compound="CCCN(CCCCC(NC(C)=O)C(=O)NCc1ccccc1)C(=O)NCCCl (centres undefined)" result="> 100 µM (inactive)"
compound=CCOC(=O)/C=C/c1ccccn1 result="> 100 µM (inactive)"
compound=Cc1ccc2c(c1C)C(=O)/C(=C/c1cccc(C)c1C(=O)O)C2 result="> 79.6 µM (inactive)"
compound="COC1(O)c2cccc(Cl)c2C(=O)N1C1(C(N)=O)CCCCC1 (centres undefined)" result="> 100 µM (inactive)"
compound="CCN1CCC(O)(c2ccc(O)cc2)C(C(=O)c2ccc(O)cc2)C1 (centres undefined)" result="27.7 µM (inactive)"
compound=CC(=O)c1c2n(n(-c3ccccc3)c1=O)C(=O)c1nccnc1-2 result="> 100 µM (inactive)"
compound=O=C(NCCCCCCCCCCCCNC(=O)c1cnc2ccccc2n1)c1cnc2ccccc2n1 result="13.6 µM (inactive)"
compound=COC(=O)[C@H](C)N1C(=O)N[C@@H](C(C)C)C1=O result="> 100 µM (inactive)"
compound=O=C1NC(N2CCOCC2)=N/C1=C\c1ccc(Cl)cc1 result="> 100 µM (inactive)"
compound="O=C1c2cn[nH]c2N=C(Nc2ccccc2)C1/N=C/c1ccc([N+](=O)[O-])cc1 (centres undefined)" result="> 10 µM (inactive)"
compound=Cc1ccc2c(c1)CN(C(=O)CCC(=O)OCc1ccccc1)c1ccc(C)cc1CN2C(=O)CCC(=O)OCc1ccccc1 result="> 100 µM (inactive)"
compound=COc1ccc(C[C@H]2COC(=O)[C@@H]2Cc2cccc(Br)c2)cc1OC result="10.4 µM (inactive)"
compound="COc1ccccc1C1c2cc3c(cc2OC(O)(CO)C1C(=O)O)OCO3.COc1ccccc1C1c2cc3c(cc2OC2(O)COC(=O)C12)OCO3 (centres undefined)" result="> 100 µM (inactive)"

----------
# GI50 values compiled below
Tested on: SF-295
Test: NCI tumour cell line growth inhibition, 48 h
Calls of active or inactive are those of the source. Cut-off read from the data, not from the text of the source: active = GI50 up to about 1.1 µM and inactive = higher.
readout_name: GI50

molecule=Cn1c2ccccc2n2c3ncccc3c(=S)c(C#N)c12 target_or_system=SF-295 readout_name=GI50 result="> 100 µM (inactive)"
molecule="NC1=NC(c2ccc(Cl)cc2)N(c2ccc(S(=O)(=O)Nc3ncccn3)cc2)C(N)=N1 (stereo not drawn)" target_or_system=SF-295 readout_name=GI50 result="> 100 µM (inactive)"
molecule=C[Si](C)(N[Si](C)(C)OCCc1ccccc1)OCCc1ccccc1 target_or_system=SF-295 readout_name=GI50 result="> 100 µM (inactive)"
molecule="COc1cc([C@@H]2c3cc4c(cc3[C@@H](OC3OC5CO[C@@H](c6cccs6)OC5C(O)C3O)[C@H]3COC(=O)[C@H]23)OCO4)cc(OC)c1O (stereo partly drawn)" target_or_system=SF-295 readout_name=GI50 result="0.144 µM (active)"
molecule=CC1=C(C(=O)N(C)c2ccc(Cl)c(C(=O)OC(C)C)c2)SCCO1 target_or_system=SF-295 readout_name=GI50 result="60.1 µM (inactive)"
molecule=CCOC(=S)SC/C(=N\OC(C)(C)OC)c1ccccc1 target_or_system=SF-295 readout_name=GI50 result="32.3 µM (inactive)"
molecule=O=C1CC(=O)NC(NN2C(=O)/C(=C/c3ccc(Cl)c(Cl)c3)N=C2c2ccccc2)=N1 target_or_system=SF-295 readout_name=GI50 result="32 µM (inactive)"
molecule=C[C@]12CC[C@H]3[C@@H](CC=C4C[C@@H](N5CCCC5)CC[C@@]43C)[C@@H]1C/C(=C\c1ccc([N+](=O)[O-])cc1)[C@@H]2O target_or_system=SF-295 readout_name=GI50 result="24.9 µM (inactive)"

----------
Here, each record is paired with measured GI50 data.
System: OVCAR-4
Experiment: NCI tumour cell line growth inhibition, 48 h
The source made the active and inactive calls. Rule as the data show it: active = GI50 up to about 1.1 µM and inactive = higher.
readout_name: GI50

compound="CC(=O)OCC(OC(C)=O)C(OC(C)=O)C(OC(C)=O)C(=O)CNn1c(-c2ccccc2)nc2ccc(Br)cc2c1=O (centres undefined)" result="> 100 µM (inactive)"
compound=O=C1O[C@@H](c2ccccc2)C[C@@H]1CN1CCOCC1 result="> 100 µM (inactive)"
compound="CC(C)=CCC/C(C)=C/CC/C(C)=C/C(O)c1ccccc1 (centres undefined)" result="> 10 µM (inactive)"
compound=O=c1c2ccccc2nc(-c2cccc([N+](=O)[O-])c2)n1O result="33 µM (inactive)"
compound="COc1ccc(CC2c3cc4c(cc3CCN2C)OCO4)c(C=O)c1OC (centres undefined)" result="> 100 µM (inactive)"
compound=Cc1nc(Nc2ccccc2)sc1C(=O)CC(=O)C(=O)Nc1c(C(C)C)cccc1C(C)C result="> 100 µM (inactive)"
compound=COc1ccc(/C=C/c2nnc(S)[nH]2)cc1 result="> 100 µM (inactive)"
compound=O=C(c1ccco1)N(C(=S)N1CCN(c2ccccn2)CC1)C1CCCCC1 result="> 100 µM (inactive)"
compound=CCCCCCc1cc2cc(C(=O)Nc3ccccc3)c(=N)oc2cc1O result="4.13 µM (inactive)"
compound=CCCCCCc1cc2cc(-c3cn4c(n3)sc3ccccc34)c(=O)oc2cc1O result="3.98 µM (inactive)"
compound="CN1C2CCC1CC(CCOC(c1ccc(F)cc1)c1ccc(F)cc1)C2 (centres undefined)" result="17.4 µM (inactive)"
compound=CCC(=O)OCc1ccc2oc(=O)c(C(=O)Oc3cncc(Cl)c3)cc2c1 result="> 100 µM (inactive)"
compound="C1CSCCSCCCS[C@@H]2CCCCC2SC1 (some centres undefined)" result="> 100 µM (inactive)"
compound="CC1(C)C(=O)C2(N)CCC1C2 (centres undefined)" result="> 100 µM (inactive)"
compound=Cn1c(=O)nc2n(-c3cccc(Cl)c3)c3ccccc3nc-2c1=O result="11.6 µM (inactive)"
compound=Nc1ccc(Oc2ccc(C34CC5CC6C3CC3CC4C(C5)C6(c4ccc(Oc5ccc(N)c(O)c5)cc4)C3)cc2)cc1O result="4.27 µM (inactive)"
compound=Brc1c2c(c(Br)c3nsnc13)N=S=N2 result="23.1 µM (inactive)"
compound=COc1ccc(/C=C2\C(=O)N(C)C(=O)c3cc(OC)c(OC)cc32)cc1OC result="38.9 µM (inactive)"
compound="N#CC1(C#N)C(c2ccccc2)NC23CCCCC2C1(C#N)C(=O)N3 (centres undefined)" result="> 100 µM (inactive)"
compound=NC(=O)CN(CC(N)=O)C(N)=O result="> 100 µM (inactive)"
compound=CC(=O)Nc1cc(CN2CCCCC2)c(O)c2ncccc12 result="35.2 µM (inactive)"
compound=CCn1c(SCC(=O)NNC(=S)Nc2ccc([N+](=O)[O-])cc2)nc2ccccc2c1=O result="48.5 µM (inactive)"
compound=CC(=O)N1CC(C)(C)c2c1cc(C)c(O)c2C result="> 100 µM (inactive)"
compound=CN(C)c1ccc(/C=C2\C[C@H]3[C@@H]4CCC5=CC(=O)CC[C@]5(C)[C@H]4CC[C@]3(C)C2=O)cc1 result="59.7 µM (inactive)"
compound=CC(C)=CCC[C@@H](C)C1=C(O)C(=O)C(C)=C(Nc2ccccc2I)C1=O result="5.01 µM (inactive)"
compound=CC(C)=C[C@H]1C[C@H](C)[C@H]2CC[C@H](C)c3c2c1c(C)c1ncoc31 result="19.2 µM (inactive)"
compound=CN(/N=C/c1ccc(Cl)c(Cl)c1)C1=NCCN1 result="41.2 µM (inactive)"
compound=Cc1c2ccncc2c(C)c2c1[nH]c1ccc(OCCN(C)C)cc12 result="0.135 µM (active)"
compound=C=C=C(Sc1ccccc1)C(C)(C)OC(C)=O result="31.2 µM (inactive)"
compound=O=[N+]([O-])c1ccc(-c2nc3ccccc3o2)cc1 result="> 100 µM (inactive)"
compound=c1ccc2c(c1)nc1n2CCSC1 result="> 100 µM (inactive)"
compound=C/C(CC(=O)CCC(=O)Nc1cccc(C(F)(F)F)c1)=N\NC(=O)NN result="> 100 µM (inactive)"
compound=COc1cc(Br)c(C2OCCCO2)cc1OCc1ccccc1 result="69.5 µM (inactive)"
compound=Cc1cc2c(cc1Cl)SSc1cc(Cl)c(C)cc1S(=O)(=O)Nc1nc(N)nn1C(O)n1nc(N)nc1NS2(=O)=O result="> 10 µM (inactive)"
compound=Clc1cccc(Cl)c1C(Nc1nncs1)Nc1nncs1 result="59.4 µM (inactive)"
compound="COC(=O)C1(NC(=O)C(CC(=O)OCc2ccccc2)NC(=O)OCc2ccccc2)CCCCCC1 (centres undefined)" result="14.1 µM (inactive)"
compound="CC1CCC2C(C)(C)CC3(C)CCC1C23O (centres undefined)" result="22.1 µM (inactive)"
compound=CN(C)CCc1c2c(nc3ccccc13)C(=O)c1cccnc1C2=O result="0.31 µM (active)"
compound=O=c1c2c3c(sc2nc2n1N=CN(c1ccc(F)cc1)C2)CCCC3 result="> 100 µM (inactive)"
compound=CCCCCCCCCCNCCSSCc1ccc(Cl)cc1 result="1.71 µM (inactive)"
compound=COc1ccc(-c2cc(N3CCN(c4ccccc4)CC3)c(C#N)c(=O)o2)cc1 result="4.59 µM (inactive)"
compound=CCOC(=O)c1c(Cl)nc2ccccc2c1N=[N+]=[N-] result="16.9 µM (inactive)"
compound=Cc1ccc(N/N=C2\C3=C(CCC(C)(C)O3)C(=O)c3ccccc32)cc1 result="18.2 µM (inactive)"
compound="CC1=CCS(=O)(=O)C1C(O)C1=C(C)CCCC1(C)C (centres undefined)" result="84.5 µM (inactive)"
